Biological target: T1, recombinant HMG1 produced in E. coli as calmodulin binding protein (CBP) fusion (human)
T1 chain: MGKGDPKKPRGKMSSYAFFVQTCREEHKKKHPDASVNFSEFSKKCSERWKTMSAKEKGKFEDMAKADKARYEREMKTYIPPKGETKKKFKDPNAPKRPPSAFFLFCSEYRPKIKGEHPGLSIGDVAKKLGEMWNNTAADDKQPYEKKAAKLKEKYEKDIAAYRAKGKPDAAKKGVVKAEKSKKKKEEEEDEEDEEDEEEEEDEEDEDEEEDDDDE
Assay: BIAcore 3000; mAb amine-coupled to CM5, HMG1 injected in two-fold dilutions; steady-state model
Each entry below carries its reported Kd.

BINDER	Kd (nM)
anti-HMG1 antibody G9 (antibody, V domains shown) VH: EVQLLESGGGLVQPGGSLRLSCAASGFTFSSYDMFWVRQAPGKGLEWVSRISPSGGYTYYADSVKGRFTISRDNSKNTLYLQMNSLRAEDTAVYYCARLRYFDSRGYAFDIWGQGTMVTVSS VL: DIQMTQSPGTLSLSPGERATLSCRASQSVRSSYLAWYQQKPGQAPRLLIYGASTRATGIPDRFSGSGSGTDFTLTISRLEPEDFAVYYCQQYGTSRWTFGQGTKVEIK	125
anti-HMG1 antibody G35 (antibody, V domains shown) VH: EVQLLESGGGLVQPGGSLRLSCAASGFTFSWYKMVWVRQAPGKGLEWVSSIVPSGGITIYADSVKGRFTISRDNSKNTLYLQMNSLRAEDTAVYYCARVQQWLGRPYFDYWGQGTLVTVSS VL: DIQMTQSPLSLPVTPGEPASISCRSSQSLLHGNGYNYLDWYLQRPGQSPQLLIYSGSNRASGVPDRFSGSGSGTDFTLKISRVEAEDVGVYYCMQSLQSRTFGQGTKVEIK	242
anti-HMG1 antibody G12 (antibody, V domains shown) VH: EVQLLESGGGLVQPGGSLRLSCAASGFTFSYYMMTWVRQAPGKGLEWVSSISPSGGYTIYADSAKGRFTISRDNSKNTLYLQMNSLRAEDTAVYYCARALSTGSFWDYWGQGTLVTVSS VL: DIQMTQSPGTLSLSPGERATLSCRASESLTSTYVAWYQHKPGQAPRLLIHGGSTRATGIPVRFSGSGSGTDFTLTIATLEPEDFAVYYCQQYGSSPYTFGQGTKLEIK	73
anti-HMG1 antibody S10 (antibody, V domains shown) VH: EVQLLESGGGLVQPGGSLRLSCAASGFTFSWYDMWWVRQAPGKGLEWVSWIVPSGGITAYADSVKGRFTISRDNSKNTLYLQMNSLRAEDTATYYCARGNYGPSPFDYWGQGTLVTVSS VL: DIQMTQSPGTLSLSPGERATLSCRATQSVRKNFLAWYQQKPGQAPRLLIYDASSRATGIPDRFSGSGSGTDFTLTISRLEPEDFAVYYCQQYGNSPIIFGQGTRLEIK	54
anti-HMG1 antibody G16 (antibody, V domains shown) VH: EVQLLESGGGLVQPGGSLRLSCAASGFTFSWYKMTWVRQAPGKGLEWVSSISPSGGFTSYADSVKGRFTISRDNSKNTLYLQMNSLRAEDTAVYYCARDLDIRHAFDIWGQGTMVTVSS VL: DIQMTQSPGTLSLSPGESGTLSCRASESVSSRHFAWYQQKPGQAPRLLIYGASSRPTGIPDRFSGSGSGTDFTLTLSRLEPEDFAVYFCQYYGSSPYTFGGGTKVEMK	22
